# target_system: PDE1B (Homo sapiens, UniProt Q01064)
# Sequence (Q01064 whole entry): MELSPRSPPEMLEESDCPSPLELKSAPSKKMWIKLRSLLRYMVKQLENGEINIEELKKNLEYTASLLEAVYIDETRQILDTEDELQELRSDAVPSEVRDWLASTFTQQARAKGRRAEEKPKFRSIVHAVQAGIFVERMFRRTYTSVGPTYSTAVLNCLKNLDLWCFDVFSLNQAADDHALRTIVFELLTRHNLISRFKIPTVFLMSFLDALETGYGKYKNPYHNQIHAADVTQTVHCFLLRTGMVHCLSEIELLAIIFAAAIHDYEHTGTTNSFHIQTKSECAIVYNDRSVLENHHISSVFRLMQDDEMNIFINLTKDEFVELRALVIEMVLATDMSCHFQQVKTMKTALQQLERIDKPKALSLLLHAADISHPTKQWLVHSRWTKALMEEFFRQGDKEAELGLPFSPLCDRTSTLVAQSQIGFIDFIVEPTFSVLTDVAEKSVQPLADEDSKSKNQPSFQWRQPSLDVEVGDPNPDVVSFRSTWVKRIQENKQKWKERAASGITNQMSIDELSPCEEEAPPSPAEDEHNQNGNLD
# test_details: In vitro HTRF PDE1 inhibition assay (PDE1B)
# Format: biochemical
# stated_conditions: 100 nM cyclic GMP, calmodulin, 45 minutes at 37° C.
Provide the reported IC50 of each item.

Can you share its IC50? I mean this compound: O=c1c2cnn(C3CCOCC3)c2nc2n1CC(c1ccc(Cl)cc1)N2 (centres unmarked)
< 1 µM

Moving on to O=c1c2cnc(C3CCOCC3)n2nc2n1CCC(c1cccc(Cl)c1)N2 (centres unmarked)
< 1 µM

Follow-up entry: CC(C)c1ncc2c(=O)n3c(nn12)NC(c1ccc(C#N)cc1)CC3 (centres unmarked)
< 1 µM

// query: `O=c1c2cnc(C(F)(F)F)n2nc2n1CC[C@H](c1ccc(Cl)cc1)N2`
1 to 10 µM

Here is the next compound: `COc1ccc([C@H]2Cn3c(nn4c(C5CCOCC5)ncc4c3=O)N2)cc1`
< 1 µM

====

Field: IC50. Provide a value for each of the molecules that follow.
# target_system: PDE1B (Homo sapiens)
# test_details: In vitro HTRF PDE1 inhibition assay (PDE1B)
# Format: biochemical
# stated_conditions: 100 nM cyclic GMP, calmodulin, 45 minutes at 37° C.

Look at this molecule and give its reported IC50. O=c1c2cnc(C3CCCC3)n2nc2n1CCC(c1ccc(Cl)cc1)N2 (centres unmarked) [Example 60]
< 1 µM

Now try Cc1ccc(CC2CCn3c(nc4c(cnn4C(C)C)c3=O)N2)cn1 (centres unmarked) [Example 33] .
1 to 10 µM

What do you have for CCn1ncc2c(=O)n3c(nc21)NC(c1ccc(Cl)cc1)CC3 (centres unmarked) [Example 34] ?
< 1 µM

Same read-out for Cc1cc(C2CCn3c(nc4c(cnn4C(C)C)c3=O)N2)ccn1 (centres unmarked) [Example 26] ?
1 to 10 µM

Moving on to the next molecule: Cc1ccc(CC2CCn3c(nc4c(cnn4C4CCCC4)c3=O)N2)cn1 (centres unmarked) [Example 42]
1 to 10 µM

====

Can you tell me IC50 for the items I'm about to list?
# target_system: PDE1B (Homo sapiens)
# test_details: In vitro HTRF PDE1 inhibition assay (PDE1B)
# Type: biochemical
# stated_conditions: 100 nM cyclic GMP, calmodulin, 45 minutes at 37° C.

Look up IC50 for this compound: `CO[C@H](C)c1ncc2c(=O)n3c(nn12)N[C@@H](c1ccc(Cl)cc1)CC3`
< 1 µM

// repeat for `CC(C)c1ncc2c(=O)n3c(nn12)N[C@H](c1ccc(Cl)cc1)CC3` and report
1 to 10 µM

Entry to check: `O=c1c2cnc(CC3CC3)n2nc2n1CC[C@H](c1ccc(Cl)cc1)N2`
< 1 µM

Now the same for `O=c1c2cnc(C3CCOCC3)n2nc2n1CC[C@@H](c1ccc(Cl)cc1C(F)(F)F)N2`
1 to 10 µM

Now consider `O=c1c2cnc(C3CCOCC3)n2nc2n1CC[C@H](c1cccc(Cl)c1)N2` .
< 1 µM

Cool, now N#Cc1cccc(C2CCn3c(nn4c(C5CCOCC5)ncc4c3=O)N2)c1 (stereo not drawn)
< 1 µM

Please answer likewise for `O=c1c2cnc(C3CCCC3)n2nc2n1CC[C@@H](c1ccc(Cl)cc1)N2`
< 1 µM

Item: `CC(C)n1ncc2c(=O)n3c(nc21)N[C@H](c1ccc(Cl)cc1)CC3`
1 to 10 µM

// next record COc1cc(C2CCn3c(nc4c(cnn4C(C)C)c3=O)N2)ccc1F (stereo not drawn)
< 1 µM

Consider next the compound `O=c1c2cnc(CO)n2nc2n1CC[C@H](c1ccc(Cl)cc1)N2` in the same way.
1 to 10 µM

What about this compound? `O=c1c2cnc([C@H]3CCOC3)n2nc2n1CC[C@H](c1ccc(Cl)cc1)N2`
< 1 µM

Also `O=c1c2cnc(C3CCOCC3)n2nc2n1C[C@@H](c1ccc(Cl)cc1)N2` ?
< 1 µM

Next record, please: COc1ccc(C2CCn3c(nn4c(C5CCOCC5)ncc4c3=O)N2)cc1 (stereo not drawn)
< 1 µM

Ok, now `O=c1c2cnc(C3CCC3)n2nc2n1CC[C@H](c1ccc(Cl)cc1)N2`
< 1 µM

Entry O=c1c2cnc(C3CCOCC3)n2nc2n1CC(c1ccc(F)nc1)N2 (stereo not drawn) please
1 to 10 µM

Try this compound too: N#Cc1ccc(C2CCn3c(nn4c(C5CCC5)ncc4c3=O)N2)cc1 (stereo not drawn)
< 1 µM

Proceed to `O=c1c2cnc([C@@H]3CCOC3)n2nc2n1CC[C@H](c1ccc(Cl)cc1)N2`
< 1 µM

Thanks! And `Cc1cncc([C@@H]2CCn3c(nn4c(C5CCCC5)ncc4c3=O)N2)c1` ?
< 1 µM

Next: `O=c1c2cnn(C3CCCC3)c2nc2n1CC[C@@H](c1ccc(Cl)cc1)N2`
1 to 10 µM

Would you mind doing CC(C)n1ncc2c(=O)n3c(nc21)NC(c1ccc(C#N)cc1)C3 (stereo not drawn) as well?
< 1 µM

Next record, please: O=c1c2cnn(C3CCOCC3)c2nc2n1CCC(c1ccc(Cl)cc1)N2 (stereo not drawn)
< 1 µM

Further, for CCC(CC)n1ncc2c(=O)n3c(nc21)NC(c1ccc(Cl)cc1)CC3 (stereo not drawn) ?
< 1 µM

Same again, this time with `CC(C)(O)c1ncc2c(=O)n3c(nn12)N[C@@H](c1ccc(Cl)cc1)CC3`
< 1 µM

One more compound: CC(C)n1ncc2c(=O)n3c(nc21)NC(c1ccccc1)CC3 (stereo not drawn)
< 1 µM

Repeat with O=c1c2cnn(C3CC3)c2nc2n1CCC(c1ccc(Cl)cc1)N2 (stereo not drawn)
< 1 µM

Can you check Cc1ncc(CC2CCn3c(nc4c(cnn4C4CCCC4)c3=O)N2)cn1 (stereo not drawn) next?
1 to 10 µM

Next compound up: O=c1c2cnn(CC(F)(F)F)c2nc2n1CCC(c1ccc(Cl)cc1)N2 (stereo not drawn)
< 1 µM

Moving on to the next compound: `COc1cncc([C@H]2CCn3c(nn4c(C5CCCC5)ncc4c3=O)N2)c1`
< 1 µM

Next compound: `O=c1c2noc(C3CCCC3)c2nc2n1CC[C@H](c1ccc(Cl)cc1)N2`
10 to 100 µM

Same for Cc1cnc(CC2CCn3c(nc4c(cnn4C(C)C)c3=O)N2)nc1 (stereo not drawn)
1 to 10 µM

Consider next the compound `CC(C)n1ncc2c(=O)n3c(nc21)N[C@@H](c1ccc(Cl)cc1)C3` in the same way.
< 1 µM

Similarly, O=c1c2cnc(C3CCC3)n2nc2n1CCC(Cc1ccc(Cl)cc1)N2 (stereo not drawn) ?
< 1 µM

Also `Cc1ccc([C@@H]2CN3C(=O)c4cnc(C(C)C)n4NC3=N2)cc1` ?
< 1 µM

Same question, `O=c1c2cnc(C3CCOCC3)n2nc2n1CC[C@H](c1ccc(Cl)cc1F)N2` this time
< 1 µM

One more compound: CC(C)c1onc2c(=O)n3c(nc12)NC(c1cccc(Cl)c1)CC3 (stereo not drawn)
1 to 10 µM

Moving on to `Cc1ccc([C@H]2CN3C(=O)c4cnc(C(C)C)n4NC3=N2)cc1`
< 1 µM

====

# target_system: PDE1B (Homo sapiens, UniProt Q01064)
# test_details: In vitro HTRF PDE1 inhibition assay (PDE1B)
# Type: biochemical
# stated_conditions: 100 nM cyclic GMP, calmodulin, 45 minutes at 37° C.
For each entry below, report its IC50 value.

Can you look up the measured IC50 of COC1(c2ncc3c(=O)n4c(nn23)N[C@@H](c2ccc(Cl)cc2)CC4)CC1 [Example 239] for me?
< 1 µM

Okay, and N#Cc1ccc(C2CCn3c(nc4c(C5CCCC5)onc4c3=O)N2)cc1 (stereo not shown) [Example 154] ?
1 to 10 µM

Param item: O=c1c2cnc(C3CCOCC3)n2nc2n1C[C@H](c1ccc(Cl)cc1)N2 [Example 139]
< 1 µM

Query O=c1c2cnc(C3CCOCC3)n2nc2n1CC[C@H](c1ccc(Cl)cc1)N2 [Example 69] next
< 1 µM

Try this compound too: CC(=O)c1ncc2c(=O)n3c(nn12)N[C@@H](c1ccc(Cl)cc1)CC3 [Example 252]
1 to 10 µM

Entry CC[C@@H](C)c1ncc2c(=O)n3c(nn12)N[C@@H](c1ccc(Cl)cc1)CC3 [Example 226] please
< 1 µM

What do we get for COc1ccc(CC2CCn3c(nc4c(cnn4C4CCOCC4)c3=O)N2)cc1 (stereo not shown) [Example 16] ?
< 1 µM

Then Cc1cncc([C@H]2CCn3c(nn4c(C5CCCC5)ncc4c3=O)N2)c1 [Example 132] ?
< 1 µM

What do we get for CC(C)c1ncc2c(=O)n3c(nn12)N[C@@H](c1ccc(Cl)cc1)CC3 [Example 18] ?
< 1 µM

Next compound up: O=c1c2cnc(C3CC=CCC3)n2nc2n1CC[C@H](c1ccc(Cl)cc1)N2 (stereo partly shown) [Example 243]
< 1 µM

What about CC(C)c1ncc2c(=O)n3c(nn12)NC(c1ccc(Cl)cn1)CC3 (stereo not shown) [Example 51] ?
< 1 µM

Here is the next compound: O=c1c2cnn(C3CCCC3)c2nc2n1CCC(c1ccncc1)N2 (stereo not shown) [Example 3]
1 to 10 µM

Please give the result for CC(C)c1nccc2c(=O)n3c(nc12)NC(c1ccc(Cl)cc1)CC3 (stereo not shown) [Example 173] too.
< 1 µM

And the next one, O=c1c2ccnc(C3CCOCC3)c2nc2n1CCC(c1ccc(Cl)cc1)N2 (stereo not shown) [Example 172] ?
1 to 10 µM

Another compound to check: CC(C)c1ncc2n1NC1=N[C@@H](c3ccc(Cl)cc3)CN1C2=O [Example 137]
< 1 µM

Also check CC(C)c1ncc2c(=O)n3c(nn12)NC(c1ccc(Cl)nc1)C3 (stereo not shown) [Example 181]
< 1 µM

Same again, this time with O=c1c2noc(C3CCOCC3)c2nc2n1CC[C@H](c1ccc(Cl)cc1)N2 [Example 155]
1 to 10 µM

Record: O=c1c2cnc(C3CCC3)n2nc2n1CCC(c1ccc(C(F)(F)F)cc1)N2 (stereo not shown) [Example 64]
< 1 µM

Entry to check: CC(C)n1ncc2c(=O)n3c(nc21)N[C@H](c1ccc(Cl)cc1)C3 [Example 143]
< 1 µM

Repeat with O=c1c2cnc(C3CCOCC3)n2nc2n1CC(c1ccc(Cl)nc1)N2 (stereo not shown) [Example 183]
< 1 µM

Check CC(C)c1ncc2c(=O)n3c(nn12)N[C@@H](c1ccc(O)cc1)C3 [Example 261] too.
< 1 µM

Now consider COc1cccc(C2CCn3c(nn4c(C(C)C)ncc4c3=O)N2)c1 (stereo not shown) [Example 47] and answer again.
< 1 µM

CC(C)n1ncc2c(=O)n3c(nc21)NC(c1ccccc1Cl)CC3 (stereo not shown) [Example 31] ?
< 1 µM

Try this compound next: O=c1c2cnn(C3CCOCC3)c2nc2n1CCC(Cc1ccc(Cl)cc1)N2 (stereo not shown) [Example 17]
< 1 µM

Repeat for the following compound: N#Cc1ccc(C2Cn3c(nc4c(cnn4C4CCOCC4)c3=O)N2)cc1 (stereo not shown) [Example 86]
< 1 µM

Where these numbers come from: patent US20160083400A1
